// 5-HT2A receptor (Homo sapiens, UniProt P28223) pKi records
Structures can show the parent of a compound that is named as a salt.
Remember, pKi is on a log scale: it is -log10 of the molar concentration.

Worked cases, answers included:
C[C@H](N)CN1c2cc(Cl)ccc2[C@@H]2CCC[C@@H]21 [Example 2, hydrochloride]; 6.14
COc1cc2c(cc1F)C1CCCC1N2C[C@H](C)N (single isomer, unassigned; isomer i); 5.94
COc1c(F)ccc2c1C1CCCC1N2CC(C)N (mixture of isomers); 6.32

Q: Identify measured pKi corresponding to C[C@H](N)CN1c2cc(Cl)c(F)cc2C2CCCC21 (single isomer, unassigned; isomer i)
Ans: 6.01
